Data provenance: ChEMBL document CHEMBL3352049

Tested on: microtubule (Bos taurus)
protocol.description: Binding affinity to microtubule (Bos taurus) after 30 mins at 26 degC by flutax-2 displacement method
measurement.name: Kb (×10⁷ /M)
Give bare numbers, in ×10⁷ /M.

smiles	Kb [×10⁷ /M]
C/C=C(\C)C(=O)N[C@@H](c1ccccc1)[C@@H](O)C(=O)O[C@H]1C[C@@]2(O)[C@@H](OC(=O)c3cccc(N=[N+]=[N-])c3)[C@@H]3[C@]4(OC(C)=O)CO[C@@H]4C[C@H](OC(=O)CC)[C@@]3(C)C(=O)[C@H](O)C(=C1C)C2(C)C	124
CCC(=O)O[C@H]1C(=O)[C@@]2(C)[C@H]([C@H](OC(=O)c3cccc(N=[N+]=[N-])c3)[C@]3(O)C[C@H](OC(=O)[C@H](O)[C@@H](NC(=O)OC(C)(C)C)c4ccccc4)C(C)=C1C3(C)C)[C@]1(OC(C)=O)CO[C@@H]1C[C@@H]2O	612
CC(=O)O[C@@]12CO[C@@H]1C[C@H](O)[C@@]1(C)C(=O)[C@H](OC(=O)C3CC3)C3=C(C)[C@@H](OC(=O)[C@H](O)[C@H](C=C(C)C)NC(=O)OC(C)(C)C)C[C@@](O)([C@@H](OC(=O)c4ccccc4)[C@H]21)C3(C)C	12
CC(=O)O[C@H]1C(=O)[C@@]2(C)[C@H]([C@H](OC(=O)c3ccccc3)[C@]3(O)C[C@H](OC(=O)[C@H](O)[C@H](CC(C)C)NC(=O)OC(C)(C)C)C(C)=C1C3(C)C)[C@]1(OC(C)=O)CO[C@@H]1C[C@@H]2O	3

Kindly review the next compound as well.
Ask | Identify measured Kb associated with CC(=O)O[C@@]12CO[C@@H]1C[C@H](O)[C@@]1(C)C(=O)[C@H](OC(=O)N(C)C)C3=C(C)[C@@H](OC(=O)[C@H](O)[C@H](C=C(F)F)NC(=O)OC(C)(C)C)C[C@@](O)([C@@H](OC(=O)c4ccccc4)[C@H]21)C3(C)C
Reply | 15
